target: human TLR9 (Homo sapiens, UniProt Q9NR96)
Sequence (Q9NR96 26-1032): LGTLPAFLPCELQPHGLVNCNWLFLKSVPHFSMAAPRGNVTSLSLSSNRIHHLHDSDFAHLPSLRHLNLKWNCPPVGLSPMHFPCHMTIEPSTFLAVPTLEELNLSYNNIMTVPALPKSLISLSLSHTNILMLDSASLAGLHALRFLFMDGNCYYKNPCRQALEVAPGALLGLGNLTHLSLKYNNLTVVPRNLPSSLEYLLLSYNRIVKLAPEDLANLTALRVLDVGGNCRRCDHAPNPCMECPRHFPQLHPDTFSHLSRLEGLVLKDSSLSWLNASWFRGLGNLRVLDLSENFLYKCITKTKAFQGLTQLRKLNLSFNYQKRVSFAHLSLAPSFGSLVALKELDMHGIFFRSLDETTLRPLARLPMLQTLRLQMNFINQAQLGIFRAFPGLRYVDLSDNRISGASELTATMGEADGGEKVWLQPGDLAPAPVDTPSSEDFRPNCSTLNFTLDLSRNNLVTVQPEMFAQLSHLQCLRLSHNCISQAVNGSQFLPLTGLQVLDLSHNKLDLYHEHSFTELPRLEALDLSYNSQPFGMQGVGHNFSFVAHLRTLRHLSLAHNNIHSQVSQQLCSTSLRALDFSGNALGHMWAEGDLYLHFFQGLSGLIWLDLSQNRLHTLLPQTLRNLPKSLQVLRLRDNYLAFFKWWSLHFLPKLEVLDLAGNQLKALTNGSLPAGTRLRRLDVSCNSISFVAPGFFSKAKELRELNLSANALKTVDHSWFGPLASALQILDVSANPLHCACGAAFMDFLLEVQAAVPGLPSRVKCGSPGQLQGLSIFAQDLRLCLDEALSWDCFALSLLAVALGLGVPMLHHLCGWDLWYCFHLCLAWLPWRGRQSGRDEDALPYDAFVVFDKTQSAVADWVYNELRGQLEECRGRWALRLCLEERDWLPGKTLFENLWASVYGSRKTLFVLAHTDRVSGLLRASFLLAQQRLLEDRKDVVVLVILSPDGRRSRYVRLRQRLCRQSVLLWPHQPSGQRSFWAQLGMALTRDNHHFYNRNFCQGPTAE
procedure text: TLR9 inhibition reporter assay (HEK-Blue cells, SEAP reporter, ODN2006 stimulation)
test parameters: HEK-Blue cells overexpressing human TLR9, SEAP reporter, ODN2006 5 nM
IC50 vs 10 µM: less than gives satisfied; not less than gives not satisfied.

[
  {
    "compound": "CNC(=O)CNC1CCC(c2ccc3[nH]c(-c4cc(OC)c5ncnn5c4)c(C(C)C)c3c2)CC1 (stereo not drawn) [Example 166]",
    "target": "human TLR9 (Homo sapiens, UniProt Q9NR96)",
    "label class": "not satisfied"
  },
  {
    "compound": "CNC(=O)CN1CC(c2ccc3[nH]c(-c4cn5ncnc5c(C)c4C)c(C(C)C)c3c2)C1",
    "target": "human TLR9 (Homo sapiens, UniProt Q9NR96)",
    "label class": "satisfied"
  },
  {
    "compound": "COc1cc(-c2[nH]c3ccc(CC4CNC4)cc3c2C(C)C)cn2ncnc12",
    "target": "human TLR9 (Homo sapiens, UniProt Q9NR96)",
    "label class": "satisfied"
  },
  {
    "compound": "Cc1cc(-c2[nH]c3ccc(C4CCNC4)cc3c2C(C)C)cc(C)n1 (stereo not drawn)",
    "target": "human TLR9 (Homo sapiens, UniProt Q9NR96)",
    "label class": "satisfied"
  },
  {
    "compound": "COc1cc(-c2[nH]c3ccc(C4CCC(N5CCNC(=O)C5)CC4)cc3c2C(C)C)cn2ncnc12 (stereo not drawn) [Example 78]",
    "target": "human TLR9 (Homo sapiens, UniProt Q9NR96)",
    "label class": "not satisfied"
  },
  {
    "compound": "COc1cc(-c2[nH]c3ccc(C4CCC(NC5(C)COC5)CC4)cc3c2C(C)C)cn2ncnc12 (single isomer, unassigned) [Example 44]",
    "target": "human TLR9 (Homo sapiens, UniProt Q9NR96)",
    "label class": "satisfied"
  }
]

Could you please tell me whether IC50 recorded for Cc1c(-c2[nH]c3ccc(C4CCC(NC(=O)CN(C)C)CC4)cc3c2C(C)C)cn(C)c(=O)c1C (stereo not drawn) [Example 472] is less than 10 µM?
not satisfied

###

target: human TLR7 (Homo sapiens, UniProt Q9NYK1)
Sequence (Q9NYK1 27-1049): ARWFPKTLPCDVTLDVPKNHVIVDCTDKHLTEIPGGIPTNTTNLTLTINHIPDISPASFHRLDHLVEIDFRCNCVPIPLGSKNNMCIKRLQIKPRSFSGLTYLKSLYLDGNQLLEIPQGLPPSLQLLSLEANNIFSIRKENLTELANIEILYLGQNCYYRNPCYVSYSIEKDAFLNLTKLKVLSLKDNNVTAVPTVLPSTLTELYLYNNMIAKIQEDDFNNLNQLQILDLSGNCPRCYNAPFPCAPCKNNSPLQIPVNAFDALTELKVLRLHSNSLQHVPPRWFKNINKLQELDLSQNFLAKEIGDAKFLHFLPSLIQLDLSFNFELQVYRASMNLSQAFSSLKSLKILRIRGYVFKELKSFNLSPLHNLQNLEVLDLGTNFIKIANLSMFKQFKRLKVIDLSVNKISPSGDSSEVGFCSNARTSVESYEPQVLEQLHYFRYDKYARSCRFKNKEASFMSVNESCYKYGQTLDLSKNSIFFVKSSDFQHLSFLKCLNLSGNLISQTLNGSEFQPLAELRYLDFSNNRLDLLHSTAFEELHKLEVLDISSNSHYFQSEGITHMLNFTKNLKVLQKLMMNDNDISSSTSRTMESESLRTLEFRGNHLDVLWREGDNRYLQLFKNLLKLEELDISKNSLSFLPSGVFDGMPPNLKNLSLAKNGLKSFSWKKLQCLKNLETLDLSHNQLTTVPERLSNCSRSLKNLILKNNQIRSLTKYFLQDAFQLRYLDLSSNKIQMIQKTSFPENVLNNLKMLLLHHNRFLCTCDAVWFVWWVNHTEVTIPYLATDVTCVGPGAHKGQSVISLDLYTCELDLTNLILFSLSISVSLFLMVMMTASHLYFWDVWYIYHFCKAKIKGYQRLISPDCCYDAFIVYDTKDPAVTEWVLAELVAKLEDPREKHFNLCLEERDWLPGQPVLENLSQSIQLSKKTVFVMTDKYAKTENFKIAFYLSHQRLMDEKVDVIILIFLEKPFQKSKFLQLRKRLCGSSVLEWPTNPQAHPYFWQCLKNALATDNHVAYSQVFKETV
procedure text: TLR7 inhibition reporter assay (HEK-Blue cells, SEAP reporter, gardiquimod stimulation)
test parameters: HEK-Blue cells overexpressing human TLR7, SEAP reporter, gardiquimod 7.5 μM
pIC50: −log10 of the molar value.
Label rule, in plain words: pIC50 of 9 and up is Condition met, under 9 is Condition not met.

[
  {
    "compound": "COc1cc(-c2[nH]c3ccc(C4CN(C(C)C)CCO4)cc3c2C(C)C)cn2ncnc12 (centres unmarked) [Example 302]",
    "label class": "Condition not met"
  },
  {
    "compound": "COc1cc(-c2[nH]c3ccc(C4CCC(N5CCOCC5)CC4)cc3c2C(C)C)cn2ncnc12 (centres unmarked) [Example 69]",
    "label class": "Condition met"
  },
  {
    "compound": "COc1cc(-c2[nH]c3ccc(C4CCCN(CC(N)=O)C4)cc3c2C(C)C)cn2ncnc12 (centres unmarked) [Example 225]",
    "label class": "Condition not met"
  },
  {
    "compound": "COc1cc(-c2[nH]c3ccc(C4CC5CNCC5C4)cc3c2C(C)C)cn2ncnc12 (centres unmarked)",
    "label class": "Condition met"
  }
]

Please tell me: is the compound COc1cc(-c2[nH]c3ccc(C4CCCN(CC(N)=O)C4)cc3c2C(C)C)cn2ncnc12 (centres unmarked) [Example 229] at or over 9 in terms of pIC50?
Condition not met

###

target: human TLR8 (Homo sapiens, UniProt Q9NR97)
Sequence (Q9NR97 27-1041): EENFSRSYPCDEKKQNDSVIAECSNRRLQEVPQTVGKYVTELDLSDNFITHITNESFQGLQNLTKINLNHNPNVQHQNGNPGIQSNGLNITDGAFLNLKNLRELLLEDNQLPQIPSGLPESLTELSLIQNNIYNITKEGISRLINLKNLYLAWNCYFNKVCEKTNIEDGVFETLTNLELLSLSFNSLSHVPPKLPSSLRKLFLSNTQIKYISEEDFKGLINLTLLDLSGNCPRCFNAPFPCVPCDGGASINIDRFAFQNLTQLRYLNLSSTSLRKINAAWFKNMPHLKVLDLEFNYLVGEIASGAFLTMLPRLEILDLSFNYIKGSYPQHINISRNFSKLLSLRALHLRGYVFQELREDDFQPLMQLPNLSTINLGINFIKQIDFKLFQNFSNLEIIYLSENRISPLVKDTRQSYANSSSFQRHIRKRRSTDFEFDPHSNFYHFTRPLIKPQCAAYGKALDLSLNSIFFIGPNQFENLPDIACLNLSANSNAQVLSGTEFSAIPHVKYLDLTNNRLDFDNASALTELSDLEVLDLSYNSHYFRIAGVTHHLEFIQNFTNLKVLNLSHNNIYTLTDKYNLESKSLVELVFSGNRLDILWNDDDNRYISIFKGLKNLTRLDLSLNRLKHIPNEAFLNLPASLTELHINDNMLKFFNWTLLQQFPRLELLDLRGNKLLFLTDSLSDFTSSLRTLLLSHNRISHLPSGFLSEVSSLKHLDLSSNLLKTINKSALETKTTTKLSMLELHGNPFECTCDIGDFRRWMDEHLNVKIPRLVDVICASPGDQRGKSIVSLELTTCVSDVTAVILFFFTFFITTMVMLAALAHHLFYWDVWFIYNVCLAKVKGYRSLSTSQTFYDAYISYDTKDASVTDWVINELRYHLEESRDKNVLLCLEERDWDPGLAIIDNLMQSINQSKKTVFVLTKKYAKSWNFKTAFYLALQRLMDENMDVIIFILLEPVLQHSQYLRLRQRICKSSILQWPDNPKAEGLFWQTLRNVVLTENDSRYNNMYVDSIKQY
procedure text: TLR8 inhibition reporter assay (HEK-Blue cells, SEAP reporter, R848 stimulation)
test parameters: HEK-Blue cells overexpressing human TLR8, SEAP reporter, R848 15.9 μM
measured quantity: pIC50
Note on pIC50: it is the negative log10 of concentration, concentration in mol/L.

[
  {
    "compound": "COc1cc(-c2[nH]c3ccc(C4CCC(N5CCNC(=O)C5)CC4)cc3c2C(C)C)cn2ncnc12 (centres unmarked) [Example 78]",
    "measured quantity": "pIC50",
    "quantitative readout": 7.49
  },
  {
    "compound": "Cc1cc(-c2[nH]c3ccc(C4CN(C5COC5)CCO4)cc3c2C(C)C)cn2ncnc12 (centres unmarked) [Example 289]",
    "measured quantity": "pIC50",
    "quantitative readout": 7.62
  },
  {
    "compound": "Cc1c(-c2[nH]c3ccc(CC4CNC4)cc3c2C(C)C)cn2ncnc2c1C",
    "measured quantity": "pIC50",
    "quantitative readout": 8.01
  }
]

pIC50 of COc1cc(-c2[nH]c3ccc(C4CCC(N(C)C5CC5)CC4)cc3c2C(C)C)cn2ncnc12 (centres unmarked) [Example 12] on human TLR8 (Homo sapiens, UniProt Q9NR97)?
8.80

###

target: human TLR9 (Homo sapiens, UniProt Q9NR96)
procedure text: TLR9 inhibition reporter assay (HEK-Blue cells, SEAP reporter, ODN2006 stimulation)
test parameters: HEK-Blue cells overexpressing human TLR9, SEAP reporter, ODN2006 5 nM
pIC50: −log10 of the molar value.
Decision: pIC50 >= 5 yields Criterion met, all other cases yield Criterion not met.

# count of solved cases: 2
[
  {
    "molecule": "Cc1cc(-c2[nH]c3ccc(C4CN(C(C)C)CCO4)cc3c2C(C)C)cc(C)n1 (stereo not shown) [Example 305]",
    "target": "human TLR9 (Homo sapiens, UniProt Q9NR96)",
    "label class": "Criterion met"
  },
  {
    "molecule": "Cc1cc(-c2[nH]c3ccc(C4CCCN(C(=O)C5(C)CC5)C4)cc3c2C(C)C)cc(C)n1 (stereo not shown) [Example 199]",
    "target": "human TLR9 (Homo sapiens, UniProt Q9NR96)",
    "label class": "Criterion not met"
  }
]

Would you say `COc1cc(-c2[nH]c3ccc(CCN4CCCCC4)cc3c2C(C)C)cn2ncnc12` shows pIC50 at minimum 5?
Criterion met

Continue with COc1cc(-c2[nH]c3ccc(C4CCC(NC(=O)CN5CCS(=O)(=O)CC5)CC4)cc3c2C(C)C)cn2ncnc12 (stereo not shown)
Criterion not met

Note, next up: Cc1c(-c2[nH]c3ccc(C4CCC(N)CC4)cc3c2C(C)C)cn2cnnc2c1C (stereo not shown) [Example 515]
Criterion met

###

IC50 reference
target: human TLR9 (Homo sapiens, UniProt Q9NR96)
procedure text: TLR9 inhibition reporter assay (HEK-Blue cells, SEAP reporter, ODN2006 stimulation)
test parameters: HEK-Blue cells overexpressing human TLR9, SEAP reporter, ODN2006 5 nM
Hi! Could you send only the number? It should be in µM, unit omitted.

[
  {
    "molecule": "Cc1c(-c2[nH]c3ccc(CC4CN(CC(=O)N(C)C)C4)cc3c2C(C)C)cn2ncnc2c1C",
    "IC50, µM": 2.82
  },
  {
    "molecule": "COc1cc(-c2[nH]c3ccc(C4CCC(NCC(F)(F)F)CC4)cc3c2C(C)C)cn2ncnc12 (single isomer, unassigned) [Example 110]",
    "IC50, µM": 37
  },
  {
    "molecule": "Cc1cc(-c2[nH]c3ccc(C4CN(C)C(C)(C)CO4)cc3c2C(C)C)cn2ncnc12 (single isomer, unassigned) [Example 376]",
    "IC50, µM": 2.67
  },
  {
    "molecule": "COc1cc(-c2[nH]c3ccc(C4CCC(N(C)C(=O)CN(C)C)CC4)cc3c2C(C)C)cn2ncnc12 (stereo not shown)",
    "IC50, µM": 1.49
  },
  {
    "molecule": "Cc1c(-c2[nH]c3ccc(C4CCC(NCC(=O)N(C)C)CC4)cc3c2C(C)C)cn(C)c(=O)c1C (stereo not shown) [Example 479]",
    "IC50, µM": 8.61
  }
]

Give the measured IC50 of Cc1c(-c2[nH]c3ccc(C4CC5CN(C6CCOC6)CC5C4)cc3c2C(C)C)cn2cnnc2c1C (stereo not shown) .
3.71
